Tested on: LU-135 (Small Cell Lung Carcinoma);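 note: after 72 h of two-drug dosing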
Experiment: Bliss excess, mean over the matrix (fraction); higher = more synergy
MEASURE NAME: Bliss excess
Just the number, please, no unit after it.

Take a look at these entries with their results.
CC1(C)CCC(CN2CCN(c3ccc(C(=O)NS(=O)(=O)c4ccc(NCC5CCOCC5)c([N+](=O)[O-])c4)c(Oc4cnc5[nH]ccc5c4)c3)CC2)=C(c2ccc(Cl)cc2)C1 [Venetoclax] + Cn1cnc2c(F)c(Nc3ccc(Br)cc3Cl)c(C(=O)NOCCO)cc21 [Selumetinib] (first compound max 1 µM, 7x7, partner max 3 µM) : -0.0545
Cc1cc2ncnn2cc1Nc1ncc2c(n1)n(C1CCOCC1)c(=O)n2C [AZD7648] + O=C(c1cc(Cc2n[nH]c(=O)c3ccccc23)ccc1F)N1CCN(C(=O)C2CC2)CC1 [Olaparib] (first compound max 10 µM, 7x7, partner max 10 µM) : 0.0148
COc1nnc2ccc(N3CCC(c4ccc(OCCN5CCN(C)C(=O)[C@H]5C)cc4)CC3)nn12 [AZD5153] + Cn1cnc2c(F)c(Nc3ccc(Br)cc3Cl)c(C(=O)NOCCO)cc21 [Selumetinib] (first compound max 1 µM, 7x7, partner max 10 µM) : -0.0138

# context switch: different compound, same Bliss excess
Kindly note the recorded Bliss excess for Cc1c2c(nn1C)CSCc1cc(n(C)n1)CSc1cc(c3ccccc3c1)OCCCc1c(C(=O)O)n(C)c3c-2c(Cl)ccc13 [AZD5991] + CCN(CCO)CCCOc1ccc2c(Nc3cc(CC(=O)Nc4cccc(F)c4)[nH]n3)ncnc2c1 [AZD2811] (first compound max 1 µM, 7x7, partner max 1 µM) , which is 0.0109
